# EXPERIMENTAL_TARGET: T1, rhCD6-Fc (human, UniProt P30203 25-398, limits assumed)
# T1 construct: also called rhCD6-Fc chimera; antigen rhCD6-Fc; not shown: Fc part
# T1 sequence (looked up): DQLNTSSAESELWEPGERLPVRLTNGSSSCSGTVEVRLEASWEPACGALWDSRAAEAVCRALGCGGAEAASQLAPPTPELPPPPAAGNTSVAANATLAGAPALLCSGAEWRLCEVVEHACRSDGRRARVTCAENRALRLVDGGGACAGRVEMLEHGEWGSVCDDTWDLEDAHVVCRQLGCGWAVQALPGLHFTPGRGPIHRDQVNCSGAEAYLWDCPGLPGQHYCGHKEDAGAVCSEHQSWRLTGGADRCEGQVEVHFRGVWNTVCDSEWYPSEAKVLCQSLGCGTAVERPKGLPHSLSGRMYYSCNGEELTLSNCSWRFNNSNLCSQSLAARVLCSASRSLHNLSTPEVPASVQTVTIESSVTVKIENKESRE
# TEST: SPR (BIAcore T200), Fab-SASA from culture medium captured on immobilised BSA, rhCD6-Fc injected, 1:1 fit of off-rate
PARAMETER: koff (s⁻¹)
// return numeric value only (unit: s⁻¹, not printed)

In the examples that follow, each entry is paired with its recorded koff.
Fab6 (Fab, V domains shown, Tested as Fab-SASA secreted into culture medium; also called back-mutation 6) VH: QVQLQESGPGLVKPSETLSLTCTVSGFSLSRYSVHWIRQPPGKGLEWIGLIWGGGFTDYNSALKSRVTISKDNSKNQVSLKLSSVTAADTAVYYCAREGVAYWGQGTLVTVSS VL: DVVMTQSPLSLPVTLGQPASISCKSSQSLLNSDGRTYLNWFQQRPGQSPRRLIYLVSKLDSGVPDRFSGSGSGTDFTLKISRVEAEDVGVYYCWQGTHFPFTFGPGTKVDIK = 3.1e-05
Fab4 (Fab, V domains shown, Tested as Fab-SASA secreted into culture medium; also called back-mutation 4) VH: QVQLQESGPGLVKPSETLSLTCTVSGFSISRYSVHWIRQPPGKGLEWIGLIWGGGFTDYNSALKSRVTISKDNSKNQVSLKLSSVTAADTAVYYCAREGVAYWGQGTLVTVSS VL: DVVMTQSPLSLPVTLGQPASISCKSSQSLLNSDGRTYLNWFQQRPGQSPRRLIYLVSKLDSGVPDRFSGSGSGTDFTLKISRVEAEDVGVYYCWQGTHFPFTFGPGTKVDIK = 1.9e-05

Note to self: koff recorded for Fab2 (Fab, V domains shown, Tested as Fab-SASA secreted into culture medium (pFASEBA vector); also called back-mutation 2; Fab2 clone from CDR grafting) VH: QVQLQESGPGLVKPSETLSLTCTVSGFSLSRYSVHWVRQPPGKGLEWLGLIWGGGFTDYNSALKSRLTISKDNSKNQVSLKLSSVTAADTAVYYCAREGVAYWGQGTLVTVSS VL: DVVMTQSPLSLPVTLGQPASISCKSSQSLLNSDGRTYLNWFQQRPGQSPRRLIYLVSKLDSGVPDRFSGSGSGTDFTLKISRVEAEDVGVYYCWQGTHFPFTFGPGTKVDIK was 2.1e-05

Note to self: koff recorded for Fab7 (Fab, V domains shown, Tested as Fab-SASA secreted into culture medium; also called back-mutation 7) VH: QVQLQESGPGLVKPSETLSLTCTVSGGSISRYSVHWVRQPPGKGLEWLGLIWGGGFTDYNSALKSRLTISVDTSKNQFSLKLSSVTAADTAVYYCAREGVAYWGQGTLVTVSS VL: DVVMTQSPLSLPVTLGQPASISCKSSQSLLNSDGRTYLNWFQQRPGQSPRRLIYLVSKLDSGVPDRFSGSGSGTDFTLKISRVEAEDVGVYYCWQGTHFPFTFGPGTKVDIK was 0.00089
